Observed MIC, system Escherichia coli BW25113.
The reply should be a number in µM, with the unit left off.

# count of solved cases: 2
>  <moleculeSmiles>
CC[C@H](C)[C@H](NC(=O)[C@@H]1CCCN1C(=O)[C@@H]1CCCN1C(=O)[C@H](CCCN=C(N)N)NC(=O)[C@H](Cc1c[nH]c2ccccc12)NC(=O)[C@@H](N)CCCN=C(N)N)C(=O)N[C@@H](CCCN=C(N)N)C(=O)N[C@@H](CCCN=C(N)N)C(=O)N1CCC[C@H]1C(=O)N1CCC[C@H]1C(=O)N[C@H](C(=O)N[C@@H](CCCN=C(N)N)C(=O)N1CCC[C@H]1C(=O)N1CCC[C@H]1C(=O)N[C@@H](Cc1c[nH]c2ccccc12)C(=O)N[C@@H](Cc1ccc(O)cc1)C(=O)N1CCC[C@H]1C(=O)O)[C@@H](C)CC

>  <unitText>
µM

>  <MIC>
16

$$$$
>  <moleculeSmiles>
CC[C@H](C)[C@H](N)C(=O)N[C@@H](CC(C)C)C(=O)N1CCC[C@H]1C(=O)N[C@@H](Cc1c[nH]c2ccccc12)C(=O)N[C@@H](CCCCN)C(=O)N[C@@H](Cc1c[nH]c2ccccc12)C(=O)N1CCC[C@H]1C(=O)N[C@@H](Cc1c[nH]c2ccccc12)C(=O)N[C@@H](Cc1c[nH]c2ccccc12)C(=O)N1CCC[C@H]1C(=O)N[C@@H](Cc1c[nH]c2ccccc12)C(=O)N[C@@H](CCCN=C(N)N)C(N)=O

>  <unitText>
µM

>  <MIC>
18.3

$$$$

Input line: Need MIC of CC[C@H](C)[C@H](NC(=O)[C@@H]1CCCN1C(=O)[C@@H]1CCCN1C(=O)[C@H](CCCN=C(N)N)NC(=O)[C@H](Cc1ccccc1)NC(=O)[C@@H](N)CCCN=C(N)N)C(=O)N[C@@H](CCCN=C(N)N)C(=O)N[C@@H](CCCN=C(N)N)C(=O)N1CCC[C@H]1C(=O)N1CCC[C@H]1C(=O)N[C@H](C(=O)N[C@@H](CCCN=C(N)N)C(=O)N1CCC[C@H]1C(=O)N1CCC[C@H]1C(=O)N[C@@H](Cc1ccccc1)C(=O)N[C@@H](Cc1c[nH]c2ccccc12)C(=O)N1CCC[C@H]1C(=O)O)[C@@H](C)CC , thanks.
Output line: 16

====

Observed MIC, system Staphylococcus aureus USA 300.
The reply should be a number in µM, with the unit left off.

>  <moleculeSmiles>
CC(C)C[C@H](NC(=O)[C@H](CC(C)C)NC(=O)[C@H](CCCCN)NC(=O)CNC(=O)[C@H](C)NC(=O)[C@H](C)NC(=O)[C@H](CCCCN)NC(=O)[C@H](C)NC(=O)[C@H](C)NC(=O)[C@H](CO)NC(=O)[C@H](CC(C)C)NC(=O)[C@H](CC(C)C)NC(=O)CN)C(N)=O

>  <unitText>
µM

>  <quantitativeReadout>
25

$$$$

Shifting focus to the molecule that follows.
Input line: Need MIC of CC[C@H](C)[C@H](NC(=O)[C@@H](NC(=O)[C@H](Cc1c[nH]c2ccccc12)NC(=O)[C@@H](NC(=O)[C@@H](N)CCCN=C(N)N)[C@@H](C)CC)C(C)C)C(=O)N[C@@H](Cc1c[nH]c2ccccc12)C(=O)N[C@@H](CCCN=C(N)N)C(=O)N[C@@H](CCCN=C(N)N)C(N)=O , thanks.
Output line: 6.25

====

Observed MIC, system Staphylococcus aureus USA 300.
The reply should be a number in µM, with the unit left off.

# count of solved cases: 3
>  <molecule>
CC(C)C[C@H](NC(=O)[C@H](CC(C)C)NC(=O)[C@H](CCCCN)NC(=O)CNC(=O)[C@H](CC(C)C)NC(=O)[C@H](CC(C)C)NC(=O)[C@H](CO)NC(=O)[C@H](C)NC(=O)[C@H](CC(C)C)NC(=O)[C@H](CO)NC(=O)[C@H](CC(C)C)NC(=O)[C@H](CC(C)C)NC(=O)CN)C(N)=O [GLLSLASLLGKLL]

>  <MIC / µM>
0.78

$$$$
>  <molecule>
CC(C)C[C@H](NC(=O)[C@H](CC(C)C)NC(=O)[C@H](CCCCN)NC(=O)CNC(=O)[C@H](CC(C)C)NC(=O)[C@H](C)NC(=O)[C@H](CCCCN)NC(=O)[C@H](CC(C)C)NC(=O)[C@H](C)NC(=O)[C@H](CO)NC(=O)[C@H](CC(C)C)NC(=O)[C@H](C)NC(=O)CN)C(N)=O [GALSALKALGKLL]

>  <MIC / µM>
25

$$$$
>  <molecule>
CC[C@H](C)[C@H](N)C(=O)N[C@@H](CCCCN)C(=O)N[C@@H](Cc1c[nH]c2ccccc12)C(=O)N[C@@H](CCCCN)C(=O)N[C@@H](CCCCN)C(=O)N[C@@H](CC(C)C)C(=O)N[C@@H](CC(C)C)C(=O)N[C@@H](CCCN=C(N)N)C(=O)N[C@@H](C)C(=O)N[C@@H](C)C(=O)N[C@@H](CCCCN)C(=O)N[C@@H](CCCN=C(N)N)C(=O)N[C@H](C(=O)N[C@@H](CC(C)C)C(N)=O)[C@@H](C)CC [IKWKKLLRAAKRIL]

>  <MIC / µM>
6.2

$$$$

Input line: Query the reported MIC for Staphylococcus aureus USA 300; item: CC[C@H](C)[C@H](NC(=O)[C@@H](NC(=O)[C@@H]1CCCN1C(=O)[C@H](CC(C)C)NC(=O)[C@@H](NC(=O)[C@@H](N)CO)[C@@H](C)CC)[C@@H](C)O)C(=O)N[C@H](C(=O)N[C@@H](CO)C(=O)N[C@@H](Cc1ccccc1)C(=O)N[C@@H](CC(C)C)C(=O)N[C@@H](CO)C(=O)N[C@@H](CCCCN)C(=O)N[C@H](C(=O)N[C@@H](Cc1ccccc1)C(N)=O)C(C)C)C(C)C [SILPTIVSFLSKVF]
Output line: 3.1

Input line: Here is the next molecule: CC(C)C[C@H](NC(=O)[C@H](CC(C)C)NC(=O)[C@H](CCCCN)NC(=O)CNC(=O)[C@H](CC(C)C)NC(=O)[C@H](CO)NC(=O)[C@H](CC(C)C)NC(=O)[C@H](CO)NC(=O)[C@H](CC(C)C)NC(=O)[C@H](CC(C)C)NC(=O)CN)C(N)=O [GLLSLSLGKLL]
Output line: 25

====

Observed MIC, system Staphylococcus aureus Newman.

>  <moleculeSmiles>
CC[C@H](C)[C@H](NC(=O)[C@@H](NC(=O)[C@@H]1CCCN1C(=O)[C@H](CC(C)C)NC(=O)[C@@H](NC(=O)[C@@H](N)CO)[C@@H](C)CC)[C@@H](C)O)C(=O)N[C@H](C(=O)N[C@@H](CO)C(=O)N[C@@H](Cc1ccccc1)C(=O)N[C@@H](CC(C)C)C(=O)N[C@@H](CO)C(=O)N[C@@H](CCCCN)C(=O)N[C@H](C(=O)N[C@@H](Cc1ccccc1)C(N)=O)C(C)C)C(C)C

>  <assayedTarget>
Staphylococcus aureus Newman

>  <MIC>
3.1 µM

$$$$

Input line: Need MIC of CC(C)C[C@H](NC(=O)[C@H](CC(C)C)NC(=O)[C@H](CC(N)=O)NC(=O)[C@H](CC(=O)O)NC(=O)[C@H](CC(N)=O)NC(=O)[C@H](CC(C)C)NC(=O)[C@@H](N)C(C)C)C(=O)N[C@@H](CCCN=C(N)N)C(=O)O , thanks.
Output line: ≥ 2500 µM

Input line: Here is the next compound: CC[C@H](C)[C@H](N)C(=O)N[C@@H](Cc1cnc[nH]1)C(=O)N[C@@H](CCC(N)=O)C(=O)NCC(=O)N[C@@H](CC(C)C)C(=O)N1CCC[C@H]1C(=O)N[C@@H](CCC(N)=O)C(=O)N[C@@H](CCC(=O)O)C(=O)O
Output line: ≥ 2500 µM

Input line: Here is the next compound: CC[C@H](C)[C@H](N)C(=O)N[C@@H](C)C(=O)N[C@@H](C)C(=O)N[C@@H](C)C(=O)NCC(=O)N[C@@H](CC(C)C)C(=O)N1CCC[C@H]1C(=O)N[C@@H](CCC(N)=O)C(=O)N[C@@H](CCC(=O)O)C(=O)O
Output line: ≥ 1250 µM

====

Observed MIC, system Staphylococcus aureus ATCC 29213.

# count of solved cases: 2
>  <moleculeSmiles>
CC[C@H](C)[C@H](NC(=O)[C@H](CC(C)C)NC(=O)[C@@H]1CCCN1C(=O)[C@H](CC(C)C)NC(=O)[C@@H](N)Cc1ccccc1)C(=O)N[C@@H](CC(C)C)C(=O)N[C@@H](Cc1ccccc1)C(=O)N[C@@H](Cc1c[nH]c2ccccc12)C(=O)N[C@H](C(=O)N[C@H](C(=O)N[C@H](C(=O)N[C@@H](C)C(=O)N[C@@H](CC(C)C)C(N)=O)[C@@H](C)O)C(C)C)[C@@H](C)CC

>  <resultType>
MIC

>  <result>
> 388 µM

$$$$
>  <moleculeSmiles>
CC[C@H](C)[C@H](NC(=O)[C@H](CCCCN)NC(=O)[C@H](CCCCN)NC(=O)[C@H](CC(C)C)NC(=O)[C@H](CCCN=C(N)N)NC(=O)[C@H](CCCCN)NC(=O)[C@H](CCCN=C(N)N)NC(=O)[C@@H](NC(=O)[C@H](CCCCN)NC(=O)[C@H](CCCCN)NC(=O)[C@H](CCCN=C(N)N)NC(=O)[C@H](CC(C)C)NC(=O)[C@H](CCCN=C(N)N)NC(=O)[C@H](CCCN=C(N)N)NC(=O)[C@H](Cc1ccccc1)NC(=O)[C@@H](N)CCCN=C(N)N)[C@@H](C)CC)C(N)=O

>  <resultType>
MIC

>  <result>
256 µM

$$$$

Shifting focus to the compound that follows.
Input line: Query the reported MIC for Staphylococcus aureus ATCC 29213; item: CC[C@H](C)[C@H](NC(=O)[C@H](CC(C)C)NC(=O)[C@@H](NC(=O)[C@@H](N)CC(=O)O)[C@@H](C)CC)C(=O)N[C@H](C(=O)N[C@H](C(=O)NCC(=O)NCC(=O)NCC(=O)N[C@@H](CO)C(=O)NCC(=O)N[C@@H](CCCCN)C(=O)N[C@@H](CCC(=O)O)C(=O)N[C@@H](CCCN=C(N)N)C(=O)N[C@@H](CCCCN)C(=O)N[C@@H](CCCCN)C(=O)N[C@@H](CCCN=C(N)N)C(=O)N[C@@H](CCCN=C(N)N)C(=O)N[C@@H](CCCN=C(N)N)C(N)=O)C(C)C)[C@@H](C)CC
Output line: > 64 µM

The reported numbers originate from DBAASP.
